system: AMPK
test summary: AMPK activation, enzyme-linked immunosorbent assay
Format: biochemical
stated conditions: Table 14, compounds of Table 7
measured quantity: EC50

| compound | measured quantity | result value |
| --- | --- | --- |
| CC(=O)c1ccc(Oc2ccc(NC(=O)c3ccc(C(=O)N4CCN(Cc5ccc(S(=O)(=O)N6CCCC6)cc5)CC4)nc3)cn2)cc1 | EC50 | 1000 to 10000 nM |
| Cc1cc(OC2CCN(C(=O)c3ccc(C(=O)NC4CCN(Cc5ccc(OC(F)(F)C(F)F)cc5)CC4)cn3)CC2)ccc1S(C)(=O)=O | EC50 | 1000 to 10000 nM |
| COc1ccc(C(=O)C2CCN(C(=O)c3ccc(C(=O)NC4CCN(Cc5ccc(-n6cccn6)cc5)C[C@H]4F)cn3)CC2)cc1 (stereo partly shown) | EC50 | < 1000 nM |
| COc1ccc(C(=O)C2CCN(C(=O)c3ccc(C(=O)NC4CCN(Cc5ccc(F)c(C)c5)C[C@H]4F)cn3)CC2)cc1 (stereo partly shown) | EC50 | < 1000 nM |
| Cc1cc(OC2CCN(C(=O)c3ccc(C(=O)Nc4ccc(Oc5ccc(C#N)cc5)nc4)cn3)CC2)ccc1S(C)(=O)=O | EC50 | 1000 to 10000 nM |
| COc1ccc(C(=O)C2CCN(C(=O)c3ccc(C(=O)NC4CCN(Cc5cccc(C#N)c5)C[C@H]4F)cn3)CC2)cc1 (stereo partly shown) | EC50 | < 1000 nM |
| CC(=O)c1ccc(Oc2ccc(NC(=O)c3ccc(C(=O)N4CCN(Cc5ccc(S(C)(=O)=O)cc5)CC4)nc3)cn2)cc1 | EC50 | 1000 to 10000 nM |
